Each item that follows carries a reported GI50.
test system: SW-620; assay: NCI tumour cell line growth inhibition, 48 h
Activity calls are given as the source filed them. Rule as the data show it: active = GI50 up to about 1.1 µM and inactive = higher.
property.measured: GI50

compound="NC(Cc1ccccc1)C(=O)N[C@H]1c2ccsc2/C(=N/O)[C@H]1O (stereo partly specified)" result="> 100 µM (inactive)"
compound="CC(=O)Oc1ccc2c(c1)CC[C@@H]1C2CC[C@]2(C)C(=O)NC(=O)CC12 (stereo partly specified)" result="> 100 µM (inactive)"
compound="CC(=O)NCC1OC2COC(c3ccccc3)OC2C(NC(=O)c2ccccc2)C1OC(=O)c1ccccc1 (stereo unspecified)" result="> 100 µM (inactive)"
compound=COc1ccc(N2CN(C)CSC2=S)cc1 result="43 µM (inactive)"
compound=O=C1C=CC(=O)c2c1ccc1c3ccccc3n(CCCCCn3c4ccccc4c4ccc5c(c43)C(=O)C=CC5=O)c21 result="8.17 µM (inactive)"
compound=CC(C)(NO)/C(=N\O)c1ccccc1 result="> 10 µM (inactive)"
compound=Clc1ccc2c(c1)[nH]c1c2nc2ccccn21 result="18.5 µM (inactive)"
compound="Cc1ccc(S(=O)(=O)NNC(C[N+](=O)[O-])c2ccccc2)cc1 (stereo unspecified)" result="11.5 µM (inactive)"
compound=CC(C)CC1C(=O)OC(C)(C)OC1=O result="> 100 µM (inactive)"
compound=CCOC(=O)CN.CCOC(=O)Nc1ccc(S(=O)(=O)OC)cc1.CCOC(=O)Nc1ccc(S(=O)(=O)OC)cc1 result="7.83 µM (inactive)"
compound="C=CCSc1nc2c(N)ncnc2n1C1OC(CO)C(O)C1O (stereo unspecified)" result="> 100 µM (inactive)"

* * *

Each item that follows carries a reported GI50.
system: OVCAR-3; test: NCI tumour cell line growth inhibition, 48 h
Active and inactive are the calls of the source. No stated cut-off is given here; in the data, active = GI50 up to about 1.1 µM and inactive = higher.
property.measured: GI50

compound=CN(C)CCN1C(=O)CC[C@@]2(C)C1=CC[C@@H]1[C@@H]2CC[C@@]2(C)[C@H]1CC[C@]2(C)O tested_system=OVCAR-3 property_measured=GI50 result="> 100 µM (inactive)"
compound=N=c1nc(N)nc(N)n1-c1ccc(S(N)(=O)=O)cc1 tested_system=OVCAR-3 property_measured=GI50 result="> 100 µM (inactive)"
compound=Cc1ccsc1/C=N/NC1=NCCN1 tested_system=OVCAR-3 property_measured=GI50 result="> 100 µM (inactive)"
compound="O=C1CC(c2c(-c3ccccc3)[nH]c3ccccc23)C(=O)N1 (centres undefined)" tested_system=OVCAR-3 property_measured=GI50 result="> 100 µM (inactive)"
compound=Clc1ccc(C(c2ccc(Cl)cc2)c2cncnc2)cc1 tested_system=OVCAR-3 property_measured=GI50 result="14.7 µM (inactive)"
compound=c1ccc2c(c1)[nH]c1c2ncc2[nH]c3ccccc3c21 tested_system=OVCAR-3 property_measured=GI50 result="2.54 µM (inactive)"
compound="COc1cc(C2(O)c3ccccc3C3=NCCN32)cc(OC)c1OC (centres undefined)" tested_system=OVCAR-3 property_measured=GI50 result="> 100 µM (inactive)"
compound=COC(=O)[C@H](Cc1ccccc1)NC(=O)NCCN(CCNC(=O)N[C@@H](Cc1ccccc1)C(=O)OC)C(=O)N[C@@H](Cc1ccccc1)C(=O)OC tested_system=OVCAR-3 property_measured=GI50 result="19.5 µM (inactive)"
compound=Cc1ccc(-c2c(C#N)c(-c3ccc([N+](=O)[O-])cc3)c(C#N)c(=O)n2NS(=O)(=O)c2ccc(C)cc2)cc1 tested_system=OVCAR-3 property_measured=GI50 result="21.2 µM (inactive)"
